Ref: the supplement of paper PMC10567573

experiment: protein stability index of a GFP-peptide fusion (GPS, HEK-293T) (PSI 1-6); higher = more stable; conditions: treatment: DMSO; c terminus: a fixed tail appended;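 further: 24-mer peptide tiles fused after GFP, lentivirally expressed, FACS-sorted into six equal bins by GFP/DsRed ratio, decoded by Illumina sequencing, PSI is the read-weighted mean bin number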
Please note: T applies when protein stability index is 4 or greater, and F applies otherwise.

Say whether SAYISNYAFANVFHGWKYMFGLVI [SLC2A12] shows protein stability index of 4 or more.
F

Evaluate TYLRLIVDHHGTAQLQALRQKEVD [INTS3] : protein stability index at minimum 4?
F

Hi team, for NFLLFDMTTHPLTNNNIKQRLIKK [GOLPH3] , is the recorded protein stability index at or above 4?
F

Please indicate if the recorded protein stability index for AAETAAQGPTPRYFTWDEVAQRSG [FADS1] meets or exceeds 4.
T

Check the entry HLVIQNLFEGMIWFLVPISSVICN [CDS1] : does protein stability index equal or exceed 4?
F

Form field: protein stability index at least 4? Entry: SIIHQMEKFSSSLHELSSRVEASH [FBF1]
F

Please indicate if the recorded protein stability index for FFRMFDRNTKRDVTLEASRENSKP [PPP2R2B] meets or exceeds 4.
F

In plain terms: is recorded protein stability index at least 4 for FSTRALVLSILHATLPGIFMLLLI [SOAT2] ?
F

Kindly determine if protein stability index recorded for QELIETNQQLRNELQLEQSRAANQ [CEP70] is above or exactly 4.
T

Assess whether reported protein stability index for VCYHYYADWFMSLGVGLLTFASLE [TMEM40] sits at 4 or higher.
F

Is reported protein stability index greater than or equal to 4 here: LSRLSVNSVTAGDYSRPLHISTFI [TSN]
F

For this sequence, is measured protein stability index 4 or higher? ATITSRGSSLSGSLCSLLESQSTS [LURAP1L]
F

API: above_or_equal(metric=protein stability index, cutoff=4) for item SSSGYSSAEINQDLNIQLLKDGYR [FAM219A]
F

Dear colleague, could you confirm whether GTADGADLRTVDPETQARLEALLE [ANKRD17] has protein stability index at or above 4?
T

Kindly determine if protein stability index recorded for VSLVTAELSKDAQASAAPAAPLPE [SLC29A1] is above or exactly 4.
T

Item KAIKQKLWEALCSQGAISEGAQRD [C22orf31] with protein stability index of 4 or above?
F

Say whether FMLMLLVLGIQVKCFHEIITIGYR [CDS1] shows protein stability index of 4 or more.
F

Is reported protein stability index greater than or equal to 4 here: SGFLKEMACPYSVLISGDIKDRLK [FAM98B]
F

Check the entry ELSEVLENQSSQAELKEAVEEPSS [CHGA] : does protein stability index equal or exceed 4?
T

Does protein stability index meet or surpass 4 for GCGWRCPEHGDRVAELFCRRCRRC [TRIM14] ?
F

Check if protein stability index >= 4 (inclusive). Item: LQSLDDTELRLLGRTHSACDALRT [RSAD1]
F

Say whether FLQEEAIDRNYVPGKSLAVSCPGW [SNX12] shows protein stability index of 4 or more.
F

Quick check: does YQNSIDDRLLVERIFAQYMVPHNL [PDS5B] have protein stability index greater than or equal to 4?
F

Dear colleague, could you confirm whether WKVRYDTFIVSCKFSPDGKYVVSG [WDR88] has protein stability index at or above 4?
F

Dear colleague, could you confirm whether MRVDLRAGDEAVFAQYDSFHVDSA [TNXB] has protein stability index at or above 4?
F

Quick check: does YGRIVEVLLMKDRETNKSRGFAFV [RBMX] have protein stability index greater than or equal to 4?
F

API: above_or_equal(metric=protein stability index, cutoff=4) for item EHRHAAAALAAMNGRKIMGKEVKV [TIA1]
F

Given EELANLRASQREYEELRNSERAEV [RSPH3] , state whether its protein stability index is at least 4.
T

Could you verify whether the entry REQADSCREQLDIMNDLSNRVWSI [TRIM14] shows protein stability index of no less than 4?
F

In plain terms: is recorded protein stability index at least 4 for DYHLLHPVENIPEIILYWKHSTIF [SLC25A25] ?
F

Confirm if protein stability index reported for the sequence IELANIRDEVAFHTAKCEKLQKEK [MTUS2] is 4 or above.
T

Say whether LCKVLGVLFSVAGGLFVGKEGPMI [CLCN6] shows protein stability index of 4 or more.
F

For this sequence, is measured protein stability index 4 or higher? ELRRQAPPPPPPSRGGPPPPPPPP [WASL]
T

Textbook exercise: given the entry APMDAPRYQHGIAVIGNFLYVVGG [KLHL13] , state whether its protein stability index is greater than or equal to 4.
F

Does protein stability index meet or surpass 4 for RQNLSKSWLDVQVSNTYVKQKTSA [TPD52L3] ?
F

Is the recorded value of protein stability index equal to or greater than 4 for this sequence? SGRLSASWEPLSGPSTPSPVAAQF [FCHO1]
F

Could you tell me if the measured protein stability index of IMNIEPAILVMHHSMKPHPAITAT [INTS3] reaches 4 or more?
F

API: above_or_equal(metric=protein stability index, cutoff=4) for item NLSRGQTPLTEGSEDLDGHSDPEE [RETREG3]
T

Check the entry RQYRSIEVLIGAGYSTPADIWSTA [SRPK2] : does protein stability index equal or exceed 4?
F

Test whether the sequence PGGLTLEEHSLEQVQSMVVGEVLK [SPDEF] records protein stability index of 4 or higher.
F
